Attribution: patent US20110150901A1

Biological target: huR4
Experiment: ELISA
pEC50: −log10 of the molar value.
quantityMeasured: pEC50

binder: BK_RI_D05 (designed binder) CAAGQFRCHNSDTCLPGAWVCDGDNDCGDNSDEASCQKRTCHSFNQFECRNGQCIPLHLVCDGVPDCGDNSDETDCGDSHILPFSTPGPST
quantityMeasured: pEC50
value: 7.35

binder: CLSDQFTCRSTNICLPLQWVCDGDDDCEDNSDEEDCSAPASEPPGSL (designed binder) [R1c_M31]
quantityMeasured: pEC50
value: ~6.52

binder: CRLNEFPCGSGSCISLHWVCDSVPDCRDDSDETDCPERT (designed binder) [R1c_M33]
quantityMeasured: pEC50
value: ~6.52
